Below, each of the compounds is paired with its reported concentration at 0.5 h value.
Assay: Drug concentration in ICR mouse plasma at 3 mg/kg, iv measured at 0.5 hrs by LC-MS/MS analysis
Assay type: ADME, organism-based
Lab book: enter the figure in ng/mL, no units written.

O=C(Nc1cc(Cl)cc(Cl)c1)c1ccc(Cn2nc(C(F)(F)F)cc2C(F)(F)F)o1; 506

Read the next record carefully.
Short answer for "Cc1cc(C)n(Cc2ccc(C(=O)Nc3ccc(Cl)c(Cl)c3)s2)n1" : concentration at 0.5 h was 389

---

Below, each of the compounds is paired with its reported Cmax value.
Experiment: Cmax in ICR mouse at 10 mg/kg, po measured up to 24 hrs by HPLC-MS/MS analysis
Type: ADME, organism-based
Parameters: route oral, dose 10 mg/kg, time <=24
Details: in vivo

Cc1cc(C)n(Cc2ccc(C(=O)Nc3ccc(Cl)c(Cl)c3)s2)n1; 760 ng/mL

Short answer for "O=C(Nc1cc(Cl)cc(Cl)c1)c1ccc(Cn2nc(C(F)(F)F)cc2C(F)(F)F)o1" : Cmax was 989 ng/mL

---

Experiment: Tmax in ICR mouse at 10 mg/kg, po measured up to 24 hrs by HPLC-MS/MS analysis
Assay type: ADME, organism-based
Settings: in vivo
measuredParameter: Tmax (h)
Lab book: enter the figure in h, no units written.

O=C(Nc1cc(Cl)cc(Cl)c1)c1ccc(Cn2nc(C(F)(F)F)cc2C(F)(F)F)o1; 2

Read the next record carefully.
Short answer for "Cc1cc(C)n(Cc2ccc(C(=O)Nc3ccc(Cl)c(Cl)c3)s2)n1" : Tmax was 0.5

---

System: Vero
Assay: Cytotoxicity against African green monkey Vero cells assessed as cell growth inhibition measured after 48 hrs by CCK8 assay
Format: cell-based
Conditions: Chlorocebus sabaeus
measuredParameter: pIC50
Scale for pIC50: -log10 of concentration given in mol/L; no unit attached.

Short answer for "O=C(Nc1cc(Cl)cc(Cl)c1)c1ccc(Cn2nc(C(F)(F)F)cc2C(F)(F)F)o1" : pIC50 was 4.63

---

Assay: Brain to blood partition coefficient of the compound
Type: physicochemical, tissue-based
Conditions: read-out: logBB (converted)
Below, each of the molecules is paired with its reported Kp value.

Cc1cc(C)n(Cc2ccc(C(=O)Nc3ccc(F)cc3C)s2)n1; 0.794
Cc1cc(C)n(Cc2ccc(C(=O)Nc3ccc(F)c(C)c3)s2)n1; 0.794
Cc1cc(C)n(Cc2ccc(C(=O)Nc3ccc(-c4cccnc4)cc3)s2)n1; 0.398

Short answer for "Cc1cc(C)n(Cc2ccc(C(=O)Nc3ccc(Br)cc3C)o2)n1" : Kp was 0.661

Short answer for "Cc1cc(C)n(Cc2ccc(C(=O)Nc3ccc(Cl)c(F)c3)s2)n1" : Kp was 1.26

---

Molecular target: Glutamate NMDA receptor (Mus musculus) (UniProt P35436+Q91ZU9+Q03391+P35438+Q01097+Q01098+A2AIR5)
Assay: Positive allosteric modulation of C57BL/6 mouse NMDA receptor assessed as fold change in compound potentiated NMDA-induced current relative to NMDA current alone at 30 uM measured after 15 to 30 mins by patch-clamp method
Format: tissue-based
Details: Brain, filed as positive allosteric modulator, time 15-30 min
Below, each of the compounds is paired with its reported fold change (FC) value.
Write the value as a bare number.

Short answer for "CNc1ccccc1NC(=O)c1ccc(Cn2nc(C)cc2C)o1" : fold change (FC) was 0.8

Short answer for "Cc1cc(C)n(Cc2ccc(C(=O)Nc3ccc(Br)cc3Cl)o2)n1" : fold change (FC) was 1.7

Short answer for "Cc1cc(C)n(Cc2ccc(C(=O)Nc3ccc(Cl)cc3CO)o2)n1" : fold change (FC) was 1.1

Short answer for "Cc1cc(C)n(Cc2ccc(C(=O)Nc3ccc(-c4cccnc4)cc3C)s2)n1" : fold change (FC) was 1.8

Short answer for "Cc1cc(C)n(Cc2ccc(C(=O)Nc3ccc(F)cc3Cl)o2)n1" : fold change (FC) was 0.9

Short answer for "O=C(Nc1ccc(Cl)c(Cl)c1)c1ccc(Cn2nc(C(F)(F)F)cc2C(F)(F)F)o1" : fold change (FC) was 2.9

Short answer for "COc1cc(NC(=O)c2ccc(Cn3nc(C(F)(F)F)cc3C(F)(F)F)o2)cc(OC)c1" : fold change (FC) was 2.5

---

Experiment: Brain to blood partition coefficient of the compound
Type: physicochemical, tissue-based
Settings: read-out: logBB (converted)
measuredParameter: Kp
Write the value as a bare number.

Consider the reported Kp for these compounds:
Cc1cc(C)n(Cc2ccc(C(=O)Nc3ccc4ccccc4c3)o2)n1; 0.398
Cc1cc(C)n(Cc2ccc(C(=O)Nc3ccc(-c4ccccc4)cc3)s2)n1; 0.398
Cc1cc(C)n(Cc2ccc(C(=O)Nc3ccc4cc[nH]c4c3)s2)n1; 0.316
Cc1cc(C)n(Cc2ccc(C(=O)Nc3cc(Cl)cc(Cl)c3)s2)n1; 1.26
Cc1cc(C)n(Cc2ccc(C(=O)Nc3ccc(Cl)cc3C(=O)Nc3ccccc3)o2)n1; 0.195
CCOc1ccc(NC(=O)c2ccc(Cn3nc(C)cc3C)s2)cc1OCC; 0.251
CNc1ccccc1NC(=O)c1ccc(Cn2nc(C)cc2C)o1; 0.316
Cc1ccc(C(=O)Nc2ccc(Br)cc2C)o1; 1.32
Cc1cc(C)n(Cc2ccc(C(=O)Nc3ccc(Br)cc3Cl)o2)n1; 1
Cc1cc(C)n(Cc2ccc(C(=O)Nc3ccc(Br)cc3)o2)n1; 0.646

Short answer for "Cc1cc(C)n(Cc2ccc(C(=O)Nc3ccc(Cl)cc3C)s2)n1" : Kp was 1.26

Short answer for "Cc1cc(C)n(Cc2ccc(C(=O)Nc3ccc(Cl)c(Cl)c3)s2)n1" : Kp was 1.26

Short answer for "Cc1cc(C)n(Cc2ccc(C(=O)Nc3ccccc3CCO)o2)n1" : Kp was 0.126

Short answer for "COc1cc(NC(=O)c2ccc(Cn3nc(C(F)(F)F)cc3C(F)(F)F)o2)cc(OC)c1" : Kp was 1.26

---

Test: Brain to blood partition coefficient of the compound
Assay type: physicochemical, tissue-based
Settings: read-out: logBB (converted)
Below, each of the molecules is paired with its reported Kp value.
Write the value as a bare number.

Consider the reported Kp for these molecules:
Cc1cc(C)n(Cc2ccc(C(=O)Nc3ccc(Cl)cc3CO)o2)n1; 0.398
COC(=O)c1cc(Br)ccc1NC(=O)c1ccc(Cn2nc(C)cc2C)o1; 0.251
O=C(Nc1ccc(Cl)c(Cl)c1)c1ccc(Cn2nc(C(F)(F)F)cc2C(F)(F)F)o1; 3.98
Cc1cc(Br)ccc1NC(=O)c1ccc(Cl)o1; 2.09

Short answer for "Cc1cc(C)n(Cc2ccc(C(=O)Nc3ccc4ccccc4c3)s2)n1" : Kp was 0.631

Short answer for "COC(=O)c1cc(F)ccc1NC(=O)c1ccc(Cn2nc(C(F)(F)F)cc2C(F)(F)F)o1" : Kp was 0.794

Short answer for "COC(=O)c1cc(Cl)ccc1NC(=O)c1ccc(Cn2nc(C)cc2C)o1" : Kp was 0.158

---

Biological target: Glutamate NMDA receptor (Mus musculus) (UniProt P35436+Q91ZU9+Q03391+P35438+Q01097+Q01098+A2AIR5)
Assay: Positive allosteric modulation of C57BL/6 mouse NMDA receptor assessed as fold change in compound potentiated NMDA-induced current relative to NMDA current alone at 30 uM measured after 15 to 30 mins by patch-clamp method
Type: tissue-based
Conditions: Brain, filed as positive allosteric modulator, time 15-30 min
Just a reminder that ties go to Not satisfied: only fold change (FC) strictly below 2 counts as Satisfied.

Recorded results for 4 compounds are shown here.
Cc1cc(C)n(Cc2ccc(C(=O)Nc3ccc(-c4cccnc4)cc3)s2)n1; Not satisfied
COC(=O)c1cc(F)ccc1NC(=O)c1ccc(Cn2nc(C)cc2C)o1; Satisfied
Cc1cc(C)n(Cc2ccc(C(=O)Nc3ccc4[nH]c(=O)[nH]c4c3)s2)n1; Satisfied
O=C(Nc1ccc(Cl)cc1Cl)c1ccc(Cn2nc(C(F)(F)F)cc2C(F)(F)F)o1; Satisfied

In: Is fold change (FC) of "COc1cc(NC(=O)c2ccc(Cn3nc(C)cc3C)s2)cc(OC)c1" strictly below 2?
Out: Satisfied

In: Is fold change (FC) of "Cc1cc(C)n(Cc2ccc(C(=O)Nc3ccccc3-c3ccccc3)o2)n1" strictly below 2?
Out: Satisfied

In: Is fold change (FC) of "Cc1cc(C)n(Cc2ccc(C(=O)Nc3ccc(Cl)cc3C)s2)n1" strictly below 2?
Out: Satisfied

In: Is fold change (FC) of "Cc1cc(C)n(Cc2ccc(C(=O)Nc3ccc(-c4ccccc4)cc3)s2)n1" strictly below 2?
Out: Not satisfied

In: Is fold change (FC) of "Cc1cc(C)n(Cc2ccc(C(=O)Nc3cc(F)cc(F)c3)s2)n1" strictly below 2?
Out: Not satisfied

In: Is fold change (FC) of "Cc1cc(NC(=O)c2ccc(Cn3nc(C(F)(F)F)cc3C(F)(F)F)o2)ccc1F" strictly below 2?
Out: Not satisfied

In: Is fold change (FC) of "Cc1cc(C)n(Cc2ccc(C(=O)Nc3ccccc3)o2)n1" strictly below 2?
Out: Satisfied

In: Is fold change (FC) of "Cc1cc(C(F)(F)F)n(Cc2ccc(C(=O)Nc3ccc(Cl)cc3C)o2)n1" strictly below 2?
Out: Not satisfied

In: Is fold change (FC) of "Cc1cc(C)n(Cc2ccc(C(=O)Nc3ccc4ccccc4c3)s2)n1" strictly below 2?
Out: Satisfied

In: Is fold change (FC) of "Cc1cc(C)n(Cc2ccc(C(=O)Nc3ccccc3CCO)o2)n1" strictly below 2?
Out: Satisfied

In: Is fold change (FC) of "Cc1cc(C)n(Cc2ccc(C(=O)Nc3ccc(Cl)cc3C(=O)NCc3ccccc3)o2)n1" strictly below 2?
Out: Not satisfied

In: Is fold change (FC) of "CCCCNC(=O)c1cc(Cl)ccc1NC(=O)c1ccc(Cn2nc(C)cc2C)o1" strictly below 2?
Out: Satisfied

In: Is fold change (FC) of "Cc1cc(F)ccc1NC(=O)c1ccc(Cn2nc(C(F)(F)F)cc2C(F)(F)F)o1" strictly below 2?
Out: Not satisfied
